assay.overview: MTT cytotoxicity assay, 293T normal cells
Type: cell-based
study.conditions: human, HEK-293T normal kidney epithelial cells, mean of three independent determinations
pIC50: −log10 of the molar value.
readout.type: pIC50

pIC50 reading for CC(=O)Oc1ccc2c(c1)CCC1C2CCC2(C)C(=NNC(N)=S)CCC12 (stereo not shown) : < 3.70

* * *

Tested on: Bel-7404 (human liver carcinoma)
assay.overview: MTT antiproliferative/cytotoxicity assay, Bel-7404
Type: cell-based
study.conditions: mean of three independent determinations
readout.type: IC50 (µM)
Numbers only; they are read as µM.

According to the records, this compound CC12CCC3c4ccc(O)cc4CCC3C1CCC2=NNC(N)=S (centres unmarked) [Compound 1] displays IC50 of 19
